Tested on: MS2 coat protein
METHOD SUMMARY: apparent KD of MS2 coat protein; higher = weaker reporter binding
STATED CONDITIONS: Eterna round: R107; input ligand: tryptophan 2.4 mM
Reported apparent KD of MS2 coat protein by item:
PROPERTY NAME: apparent KD of MS2 coat protein (nM)

{"SEQ TEXT": "UUAAUCAUAUAUGAAAACAUAUAUGCAGAAGGAGCGUGAUAAAACACAGGUAGGUCGCUGAAGGGAACAUGAGGAUCACCCAUGU [AstrosSSArgA#2]", "EXPERIMENTAL SYSTEM": "MS2 coat protein", "RECORDED NUMBER": 32.4}
{"SEQ TEXT": "UGUAACAUGAGGAUCACCCAUGUGAGUGAUACCAGACUAGUAUUAGUCCCUUGGCAGCACGCUGGGCGAGUGUAUAGUCUAUGCG [Same State - Theophylline A (Freestyle 15)]", "EXPERIMENTAL SYSTEM": "MS2 coat protein", "RECORDED NUMBER": 75.5}
{"SEQ TEXT": "UUACAUGAGGAUCACCCAUGUCAUACAGAAGGAGCGUCACAUAAGACAGGUAGGUCGCUGUUAUUUUUUACUAUUAUAUCCUCUA [JR_Nu_ExcArginiA_Sub030]", "EXPERIMENTAL SYSTEM": "MS2 coat protein", "RECORDED NUMBER": 25.9}
{"SEQ TEXT": "GCGAUGGAGCGAAGGAGCGGCUGUGACUACAUGAGGAUCACCCAUGUACGAUCGUAAGGUAGCCAGGUAGGUCGCGCUCCAUCGC [SSAB NP+V+V2 #17]", "EXPERIMENTAL SYSTEM": "MS2 coat protein", "RECORDED NUMBER": 26.2}
{"SEQ TEXT": "AACAUGAGGAUCACCCAUGUCUGAACUGAAGGAGCGCUAAAUAAGGCAGGUAGGUCGCGGAAUUUUGUGUAUAUAUAUAUAUGGG [9.G]", "EXPERIMENTAL SYSTEM": "MS2 coat protein", "RECORDED NUMBER": 24.3}
{"SEQ TEXT": "AGCGCAGGUCCUGAUACCAGAGACAUGAGGAUCACCCAUGUCCGGUGGUCCUGCCACAGGCUCCCUUGGCAGCAGGGCUUGUGCU [Exclusion Theophylline B GF9]", "EXPERIMENTAL SYSTEM": "MS2 coat protein", "RECORDED NUMBER": 29.1}
